# protocol: inhibition of endothelial tube formation, primary screen, imaging, VEGF stimulated, CD31 staining, tube area, NPC library (AID 1117340)
# conditionParameters: VEGF-stimulated ADSC/ECFC co-culture, at 10 µM, hits give high values
Listed below: tube area decrease values for each entry.
measureName: tube area decrease (%)

compound	measureName	observedValue
CCCCN1CCCC[C@H]1C(=O)Nc1c(C)cccc1C	tube area decrease	-20.3
NC(=O)CC[C@@H](N)C(=O)O	tube area decrease	15.2
CC(=O)OCC(=O)Nc1cc(C#N)cc(NC(=O)COC(C)=O)c1Cl	tube area decrease	-12.8
O=C(O)[C@@H]1CCCN1	tube area decrease	-4
O=C(Nc1ccc(Br)cc1)c1cc(Br)c(Br)s1	tube area decrease	108
CC1CN(c2cc3c(cc2F)c(=O)c(C(=O)O)cn3-c2ccc(F)cc2F)CCN1 (stereo unspecified)	tube area decrease	5.5
CCOC(=O)c1cccnc1	tube area decrease	-7.8
O=C1CCC(C(=O)O)N1 (stereo unspecified)	tube area decrease	6.4
C[N+](C)(CCOc1ccccc1)Cc1cccs1	tube area decrease	-14.7
CC[C@@]1(c2ccccc2)NC(=O)N(C)C1=O	tube area decrease	0.1
O=C(O)c1ccccc1-c1ccc(C(F)(F)F)cc1	tube area decrease	21.5
Oc1ccccc1-c1nnco1	tube area decrease	-3.9
O=C(O)CCC(=O)O	tube area decrease	-24.1
CCCc1nc2c(C)cc(-c3nc4ccccc4n3C)cc2n1Cc1ccc(-c2ccccc2C(=O)O)cc1	tube area decrease	8
C[C@@H]1C[C@H]2[C@@H]3CCC4=CC(=O)C=C[C@]4(C)[C@@]3(F)[C@@H](O)C[C@]2(C)[C@@]1(O)C(=O)CO	tube area decrease	-12.9
NC(=O)CC[C@@H]1NC(=O)[C@H](Cc2ccccc2)NC(=O)[C@H](Cc2ccc(O)cc2)NC(=O)CCSSC[C@@H](C(=O)N2CCC[C@H]2C(=O)N[C@@H](CCCN=C(N)N)C(=O)NCC(N)=O)NC(=O)[C@H](CC(N)=O)NC1=O	tube area decrease	3.9
CCOC(=O)c1c(N)sc2c1CCN(Cc1ccccc1)C2	tube area decrease	33.8
Cc1ccc(C(C)OC(=O)C2(C)CCC(C(=O)O)C2(C)C)cc1 (stereo unspecified)	tube area decrease	-0.8
CN(C)c1ccc(O)c2c1C[C@H]1C[C@H]3[C@H](N(C)C)C(=O)C(C(N)=O)=C(O)[C@@]3(O)C(=O)C1=C2O	tube area decrease	6.7
CC(=O)Nc1nnc(S(N)(=O)=O)s1	tube area decrease	-16.7
COc1cc([C@@H]2c3cc4c(cc3[C@H](O)[C@H]3COC(=O)[C@H]23)OCO4)cc(OC)c1OC	tube area decrease	109
NC(=O)NC1N=C([O][Al])NC1=O (stereo unspecified)	tube area decrease	0.8
CCC(CN)=C(c1ccccc1)c1ccccc1	tube area decrease	7
O=C(O)Cn1cnnn1	tube area decrease	-3.2
O=S1(=O)OC(c2ccc(O)cc2)(c2ccc(O)cc2)c2ccccc21	tube area decrease	2.5
O=C(COCCOCCOCC(=O)Nc1c(I)cc(I)c(C(=O)O)c1I)Nc1c(I)cc(I)c(C(=O)O)c1I	tube area decrease	-2.4
Cc1ccccc1C(OCCN(C)C)c1ccccc1 (stereo unspecified)	tube area decrease	2.8
CN(C)CCc1c[nH]c2ccc(C[C@H]3COC(=O)N3)cc12	tube area decrease	-1.1
c1ccc(CCNc2nc(-c3ccccc3)cs2)cc1	tube area decrease	34.9
Nc1ncnc(Nc2ccccc2)n1	tube area decrease	-16
NC12CC3CC(CC(C3)C1)C2	tube area decrease	3.9
CCCC(=O)O[C@]1(C(=O)COC(=O)CC)CC[C@H]2[C@@H]3CCC4=CC(=O)CC[C@]4(C)[C@H]3[C@@H](O)C[C@@]21C	tube area decrease	-9
CCCCCCCCCCCCCCCC[n+]1ccccc1	tube area decrease	104
CCC(C)(C)C(=O)O[C@H]1C[C@@H](C)C=C2C=C[C@H](C)[C@H](CC[C@@H]3C[C@@H](O)CC(=O)O3)[C@H]21	tube area decrease	91
C[C@@H](O)[C@H]1C(=O)N2C(C(=O)[O-])=C(SC3Cn4cnc[n+]4C3)[C@H](C)[C@H]12 (stereo partly specified)	tube area decrease	-9.3
CC(C)(C)c1nnc(NS(=O)(=O)c2ccc(N)cc2)s1	tube area decrease	-5.2
CCN(CC)CCNC(=O)COc1ccc(Cl)cc1	tube area decrease	-3.5
C=C1C(=C/C=C2\CCC[C@]3(C)[C@@H]([C@H](C)/C=C/[C@@H](O)C4CC4)CC[C@@H]23)C[C@@H](O)C[C@@H]1O	tube area decrease	19.7
CCOCCOC(=O)/C=C/c1ccc(OC)cc1	tube area decrease	18.9
C[C@@H]1C[C@H]2[C@@H]3CCC4=CC(=O)C=C[C@]4(C)[C@@]3(F)[C@@H](O)C[C@]2(C)[C@@]1(O)C(=O)COC(=O)c1ccncc1	tube area decrease	-2.4
CCCCCCCCCCCCCCNCCO	tube area decrease	103
CN(C)C(=O)CNC(=O)Cc1ccccc1	tube area decrease	7.1
O=C1CCC(N2C(=O)c3ccccc3C2=O)C(=O)N1 (stereo unspecified)	tube area decrease	5.6
CCCCCCCCCCCCSCCOCCO	tube area decrease	6.6
CN[C@@H]1[C@H](O)[C@H](O[C@@H]2[C@H](O)[C@@H](O[C@H]3O[C@H]([C@@H](C)NC)CC[C@H]3N)[C@@H](N)C[C@H]2N)OC[C@]1(C)O	tube area decrease	0.9
NC(=O)c1cnccn1	tube area decrease	14.5
